Taken from paper PMC5362750.

# ASSAY_OVERVIEW: in vitro
# EXPERIMENTAL_CONTEXT: human, Caco-2, pH 7.4
MEASURED_PROPERTY: Papp A→B at 2 h, 1 μM (×10⁻⁶ cm/s)
Give the value in ×10⁻⁶ cm/s but do not write ×10⁻⁶ cm/s after it.

Indicate the recorded Papp A→B at 2 h, 1 μM value for this molecule: Cn1ncc2cc(-c3cnc(N)c(Cl)c3N3CCC4(CCNC4=O)CC3)ccc21 31.8

* * *

# ASSAY_OVERVIEW: in vivo
# EXPERIMENTAL_CONTEXT: NCr athymic, mouse, po, 30 mg/kg, Free Plasma conc.
MEASURED_PROPERTY: concentration at 24 h (nM)
Give the value in nM but do not write nM after it.

Indicate the recorded concentration at 24 h value for this molecule: Cn1ncc2cc(-c3cnc(N)c(Cl)c3N3CCC4(CCNC4=O)CC3)ccc21 3

* * *

# ASSAY_OVERVIEW: Caco-2 Papp determination
# EXPERIMENTAL_CONTEXT: human, Caco-2, pH 7.4
MEASURED_PROPERTY: Papp A→B at 2 h, 1 μM

MOL	Papp A→B at 2 h, 1 μM
Cn1cc(-c2ccc(-c3cncc(Cl)c3N3CCC4(CC3)NC(=O)CNC4=O)cc2)cn1	6.7 ×10⁻⁶ cm/s
CN1c2ccc(-c3cncc(F)c3N3CCC4(CCNC4=O)CC3)cc2CS1(=O)=O	32.9 ×10⁻⁶ cm/s

Indicate the recorded Papp A→B at 2 h, 1 μM value for this compound: Cn1ncc2cc(-c3cnc(N)c(Cl)c3N3CCC4(CC3)CNC(=O)O4)ccc21 33.4 ×10⁻⁶ cm/s

Indicate the recorded Papp A→B at 2 h, 1 μM value for this compound: Cn1cc(-c2ccc(-c3cnc(N)c(Cl)c3N3CCC4(CC3)CNC(=O)O4)cc2)cn1 48.3 ×10⁻⁶ cm/s

Indicate the recorded Papp A→B at 2 h, 1 μM value for this compound: CC(C)n1cc(-c2ccc(-c3cnc(N)c(Cl)c3N3CCC4(CCNC4=O)CC3)cc2)cn1 37.4 ×10⁻⁶ cm/s

Indicate the recorded Papp A→B at 2 h, 1 μM value for this compound: Cn1cc(-c2ccc(-c3cnc(N)c(Cl)c3N3CCC4(CCNC4=O)CC3)cc2)cn1 37 ×10⁻⁶ cm/s

Indicate the recorded Papp A→B at 2 h, 1 μM value for this compound: O=C1NCCC12CCN(c1c(Cl)cncc1-c1ccc(-c3cnn(CCN4CCCC4)c3)cc1)CC2 30.4 ×10⁻⁶ cm/s

Indicate the recorded Papp A→B at 2 h, 1 μM value for this compound: Cn1cc(-c2ccc(-c3cnc(N)c(C(F)(F)F)c3N3CCC4(CC3)CNC(=O)O4)cc2)cn1 29.1 ×10⁻⁶ cm/s

* * *

# EXPERIMENTAL_CONTEXT: human
Listed here: items and their measured clearance.
Give the value in mL/min/kg but do not write mL/min/kg after it.

MOL	UNIT_OF_MEASUREMENT	clearance
Cn1ncc2cc(-c3cnc(N)c(Cl)c3N3CCC4(CCNC4=O)CC3)ccc21	mL/min/kg	6

Consider the additional compound presented here.
Indicate the recorded clearance value for this compound: Cn1cc(-c2ccc(-c3cncc(Cl)c3N3CCC4(CCNC4=O)CC3)cc2)cn1 14.7

* * *

# ASSAY_OVERVIEW: in vivo
# EXPERIMENTAL_CONTEXT: NCr athymic, mouse, po, 30 mg/kg, Total tumor conc.
MEASURED_PROPERTY: concentration at 6 h (nM)
Give the value in nM but do not write nM after it.

Indicate the recorded concentration at 6 h value for this molecule: Cn1ncc2cc(-c3cnc(N)c(Cl)c3N3CCC4(CCNC4=O)CC3)ccc21 1570

* * *

Listed here: items and their measured solubility at 24 h.
# ASSAY_OVERVIEW: Thermodynamic solubility determination
# Format: physicochemical
# EXPERIMENTAL_CONTEXT: phosphate buffer, pH 7.4, TFA salt, pH 7.4, 37 °C; read-out: Solubility Therm.
Give the value in µg/mL but do not write µg/mL after it.

// known answers, use as guide
COMPOUND	MEASURED_PROPERTY	UNIT_OF_MEASUREMENT	OBSERVED_VALUE
Cn1cc(-c2ccc(-c3cnc(N)c(C(F)(F)F)c3N3CCC4(CC3)CNC(=O)O4)cc2)cn1 [Compound 95]	solubility at 24 h	µg/mL	8
Cc1nc(-c2ccc(-c3cncc(Cl)c3N3CCC4(CCNC4=O)CC3)cc2)cn1C [Compound 21]	solubility at 24 h	µg/mL	33
O=C1NCCC12CCN(c1c(Cl)cncc1-c1ccc(-c3cnn(CCO)c3)cc1)CC2 [Compound 17]	solubility at 24 h	µg/mL	112

Indicate the recorded solubility at 24 h value for this compound: CN1c2ccc(-c3cnc(N)c(Cl)c3N3CCC4(CC3)CNC(=O)O4)cc2CS1(=O)=O [Compound 90] 2

Indicate the recorded solubility at 24 h value for this compound: Nc1n[nH]c2cc(-c3cncc(Cl)c3N3CCC4(CCNC4=O)CC3)ccc12 [Compound 25] 540

* * *

# ASSAY_OVERVIEW: in vivo
# EXPERIMENTAL_CONTEXT: NCr athymic, mouse, po, 30 mg/kg, Free tumor conc.
MEASURED_PROPERTY: concentration at 6 h (nM)
Give the value in nM but do not write nM after it.

Indicate the recorded concentration at 6 h value for this compound: Cn1ncc2cc(-c3cnc(N)c(Cl)c3N3CCC4(CCNC4=O)CC3)ccc21 55

* * *

Listed here: items and their measured clearance.
# ASSAY_OVERVIEW: In vivo mouse PK
# EXPERIMENTAL_CONTEXT: female, NMRI, plasma, iv, 0.2 mg/kg, Cl, 0.2 mg/kg iv

// known answers, use as guide
COMPOUND	MEASURED_PROPERTY	OBSERVED_VALUE
Cn1cc(-c2ccc(-c3cncc(Cl)c3N3CCC4(CC3)NCNC4=O)cc2)cn1 [Compound 44]	clearance	51.2 mL/min/kg
CN1c2ccc(-c3cnc(N)c(Cl)c3N3CCC4(CC3)CNC(=O)O4)cc2CS1(=O)=O [Compound 90]	clearance	36 mL/min/kg
O=C1NCCC12CCN(c1c(Cl)cncc1-c1ccc(-c3cnn(CCO)c3)cc1)CC2 [Compound 17]	clearance	47.2 mL/min/kg

Indicate the recorded clearance value for this compound: Cn1cc(-c2ccc(-c3cncc(Cl)c3N3CCC4(CC3)NC(=O)NC4=O)cc2)cn1 [Compound 45] 26 mL/min/kg

* * *

# ASSAY_OVERVIEW: Rat Clint determination
# Format: in vitro ADME
# EXPERIMENTAL_CONTEXT: pH 7.4; rat microsomes
MEASURED_PROPERTY: microsomal CLint at 1 μM (µL/min/mg)
Give the value in µL/min/mg but do not write µL/min/mg after it.

Indicate the recorded microsomal CLint at 1 μM value for this compound: CC(C)n1ncc2ccc(-c3cnc(N)c(Cl)c3N3CCC4(CCNC4=O)CC3)cc21 139

* * *

Listed here: items and their measured clearance.
# ASSAY_OVERVIEW: In vivo mouse PK
# EXPERIMENTAL_CONTEXT: female, NMRI, plasma, iv, 0.2 mg/kg, Cl, 0.2 mg/kg iv
Give the value in mL/min/kg but do not write mL/min/kg after it.

// known answers, use as guide
MOL	clearance / mL/min/kg
Nc1n[nH]c2cc(-c3cncc(Cl)c3N3CCC4(CCNC4=O)CC3)ccc12	29.2
Cn1ncc2cc(-c3cnc(N)c(Cl)c3N3CCC4(CCNC4=O)CC3)ccc21	10.2
CN1c2ccc(-c3cncc(F)c3N3CCC4(CC3)CNC(=O)O4)cc2CS1(=O)=O	87.5

Consider the additional molecule presented here.
Indicate the recorded clearance value for this molecule: CC(C)(O)Cn1cc(-c2ccc(-c3cncc(Cl)c3N3CCC4(CCNC4=O)CC3)cc2)cn1 16.5

* * *

# ASSAY_OVERVIEW: Caco-2 Papp determination
# EXPERIMENTAL_CONTEXT: human, Caco-2, pH 7.4
Listed here: items and their measured Papp A→B at 2 h, 1 μM.
Give the value in ×10⁻⁶ cm/s but do not write ×10⁻⁶ cm/s after it.

// known answers, use as guide
MOLECULE	UNIT_OF_MEASUREMENT	Papp A→B at 2 h, 1 μM
CN1CNC(=O)C12CCN(c1c(Cl)cncc1-c1ccc(-c3cnn(C)c3)cc1)CC2 [Compound 104]	×10⁻⁶ cm/s	30.6
CN1c2ccc(-c3cnc(N)c(Cl)c3N3CCC4(CC3)CNC(=O)O4)cc2CS1(=O)=O [Compound 90]	×10⁻⁶ cm/s	10.3
CN1c2ccc(-c3cncc(F)c3N3CCC4(CC3)CNC(=O)O4)cc2CS1(=O)=O [Compound 63]	×10⁻⁶ cm/s	16
COCCN1CCCC12CCN(c1c(Cl)cncc1-c1ccc3c(c1)CS(=O)(=O)N3C)CC2 [Compound 54]	×10⁻⁶ cm/s	34.3
Cn1cc(-c2ccc(-c3cncc(Cl)c3N3CCC4(CC3)NC(=O)NC4=O)cc2)cn1 [Compound 45]	×10⁻⁶ cm/s	15.9

Indicate the recorded Papp A→B at 2 h, 1 μM value for this molecule: CNc1n[nH]c2cc(-c3cncc(Cl)c3N3CCC4(CCNC4=O)CC3)ccc12 [Compound 100] 28.8

Indicate the recorded Papp A→B at 2 h, 1 μM value for this molecule: CC(C)(O)Cn1cc(-c2ccc(-c3cncc(Cl)c3N3CCC4(CCNC4=O)CC3)cc2)cn1 [Compound 18] 32

Indicate the recorded Papp A→B at 2 h, 1 μM value for this molecule: Cn1cc(-c2ccc(-c3cncc(Cl)c3N3CCC4(CC3)NCNC4=O)cc2)cn1 [Compound 44] 19.1
